Assay: Tmax in rat at 15 mg/kg, po
Assay type: ADME, organism-based
Design: dose 15 mg/kg, route oral
Conditions: in vivo
assayReadout: Tmax (h)
Numbers only; they are read as h.

Can you share its Tmax? I mean this compound: CN1CCN(CCC#CC(=O)Nc2cc3c(Nc4ccc(F)c(Cl)c4)ncnc3cn2)CC1
4.7

---

Assay: AUC(0-tz) in dog at 5 mg/kg, iv
Type: ADME, organism-based, Canis lupus familiaris
Design: dose 5 mg/kg, route intravenous
Conditions: plasma
assayReadout: AUC

Can you share its AUC? I mean this compound: CN1CCN(CCC#CC(=O)Nc2cc3c(Nc4ccc(F)c(Cl)c4)ncnc3cn2)CC1
7470 ng·h/mL
